Biological target: C1q (printed Clq) (Homo sapiens, UniProt P02745;P02746;P02747 P02745:23-245,P02746:28-253,P02747:29-245)
Sequence (P02745 23-245, chain 1 of 3): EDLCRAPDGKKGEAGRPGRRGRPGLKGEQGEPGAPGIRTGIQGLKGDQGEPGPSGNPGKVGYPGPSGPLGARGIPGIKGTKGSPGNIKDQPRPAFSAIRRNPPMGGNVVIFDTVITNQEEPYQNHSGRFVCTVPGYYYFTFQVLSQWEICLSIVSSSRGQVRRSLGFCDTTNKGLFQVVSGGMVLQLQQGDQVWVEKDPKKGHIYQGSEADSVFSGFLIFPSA
Sequence (P02746 28-253, chain 2 of 3): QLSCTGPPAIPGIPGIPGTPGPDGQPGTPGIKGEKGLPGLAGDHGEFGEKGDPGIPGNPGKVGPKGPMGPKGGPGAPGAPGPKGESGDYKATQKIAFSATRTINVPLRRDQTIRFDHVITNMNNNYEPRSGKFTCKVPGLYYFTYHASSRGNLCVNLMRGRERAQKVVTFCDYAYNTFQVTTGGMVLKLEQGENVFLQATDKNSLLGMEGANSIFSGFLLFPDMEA
Sequence (P02747 29-245, chain 3 of 3): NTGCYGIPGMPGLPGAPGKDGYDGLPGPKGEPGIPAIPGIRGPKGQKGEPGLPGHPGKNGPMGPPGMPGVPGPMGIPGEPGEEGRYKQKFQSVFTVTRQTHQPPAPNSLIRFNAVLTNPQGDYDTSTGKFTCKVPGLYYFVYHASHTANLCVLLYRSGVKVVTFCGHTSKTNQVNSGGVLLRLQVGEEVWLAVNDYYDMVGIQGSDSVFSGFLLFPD
Assay: filter; specificity control, like random RNA; TBSC
Conditions: chain copies: 6
assay_endpoint: pKd
Note on units: pKd is unitless, being -log10 of a concentration expressed in mol/L.

Record request: pKd value, item NN19.15 (ssRNA, 2'-NH2 all C and U) RNA: GGGAAAAGAAGACCGGCCGGCGCCAUAGCCGAGAUCCGAGGUGUUGCCGAGAA
6.00
